- experimental target: human c-mpl-R (human, UniProt P40238)
- test protocol: cell-based or functional assay
Recorded Bone Marrow Proliferation Assay: Cells/Well after 10 Day Culture of CD34+ enriched cells for the following binders

Worked cases, answers included:
binder	reported measurement
1-332 Δ112-115 c-mpl ligand (pMON26451-3) (ligand) SPAPPACDLRVLSKLLRDSHVLHSRLSQCPEVHPLPTPVLLPAVDFSLGEWKTQMEETKAQDILGAVTLLLEGVMAARGQLGPTCLSSLLGQLSGQVRLLLGALQSLLGTQGRTTAHKDPNAIFLSFQHLLRGKVRFLMLVGGSTLCVRRAPPTTAVPSRTSLVLTLNELPNRTSGLLETNFTASARTTGSGLLKWQQGFRAKIPGLLNQTSRSLDQIPGYLNRIHELLNGTRGLFPGPSRRTLGAPDISSGTSDTGSLPPNLQPGYSPSPTHPPTGQYTLFPLPPTLPTPVVQLHPLLPDPSAPTPTPTSPLLNTSYTHSQNLSQEG	< 500 cells/well
1-153 c-mpl ligand (pMON26448) (ligand) SPAPPACDLRVLSKLLRDSHVLHSRLSQCPEVHPLPTPVLLPAVDFSLGEWKTQMEETKAQDILGAVTLLLEGVMAARGQLGPTCLSSLLGQLSGQVRLLLGALQSLLGTQLPPQGRTTAHKDPNAIFLSFQHLLRGKVRFLMLVGGSTLCVR	22500 cells/well

Which Bone Marrow Proliferation Assay: Cells/Well after 10 Day Culture of CD34+ enriched cells is listed for 1-153 Δ112-115 c-mpl ligand (pMON26450) (ligand) SPAPPACDLRVLSKLLRDSHVLHSRLSQCPEVHPLPTPVLLPAVDFSLGEWKTQMEETKAQDILGAVTLLLEGVMAARGQLGPTCLSSLLGQLSGQVRLLLGALQSLLGTQGRTTAHKDPNAIFLSFQHLLRGKVRFLMLVGGSTLCVR ?
< 500 cells/well
